# experimental-target: purified recombinant COX-2 enzyme (Homo sapiens)
# Sequence (P35354 18-604): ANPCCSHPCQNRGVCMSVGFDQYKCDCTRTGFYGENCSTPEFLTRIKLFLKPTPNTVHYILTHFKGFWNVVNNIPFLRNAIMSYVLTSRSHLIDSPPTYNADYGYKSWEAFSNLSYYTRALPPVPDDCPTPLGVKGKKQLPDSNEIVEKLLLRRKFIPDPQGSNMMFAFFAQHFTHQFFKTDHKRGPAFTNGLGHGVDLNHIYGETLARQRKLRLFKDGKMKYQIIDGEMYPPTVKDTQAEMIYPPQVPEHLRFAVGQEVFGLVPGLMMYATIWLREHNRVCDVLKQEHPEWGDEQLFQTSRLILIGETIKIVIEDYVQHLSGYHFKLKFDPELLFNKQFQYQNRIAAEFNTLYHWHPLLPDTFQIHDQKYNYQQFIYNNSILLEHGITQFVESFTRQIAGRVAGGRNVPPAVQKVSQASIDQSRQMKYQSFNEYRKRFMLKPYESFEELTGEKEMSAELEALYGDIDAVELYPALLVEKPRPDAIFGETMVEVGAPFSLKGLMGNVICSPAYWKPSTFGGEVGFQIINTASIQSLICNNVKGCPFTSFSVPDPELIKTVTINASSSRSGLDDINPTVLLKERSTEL
# assay-procedure: COX-2 enzyme based assay
# Format: biochemical
# test-conditions: Conc. 10 μM
In this section, each of the molecules is paired with its reported inhibition at 10 µM.

sample-smiles | inhibition at 10 µM
CSc1nc(-c2ccncc2)nc(NCCO)c1C(=O)Nc1ccc(C)cc1 | 26.8%
CNc1nc(-c2cccnc2)nc(NC)c1C(=O)Nc1ccc(OC)cc1 | 23.2%
CSc1nc(-c2ccncc2)nc(NCCO)c1C(=O)Nc1ccc(C)c(C)c1 | 17.1%
CNc1nc(-c2ccncc2)nc(SC)c1C(=O)Nc1ccc(OC)cc1 | 11.4%
CNc1nc(-c2cccnc2)nc(SC)c1C(=O)Nc1ccc(OC)cc1 | 19.3%
